Give measured GI50 for each item. Keep answers brief.
# Tested on: BT-549
# Assay Info: NCI anti-tumor screen, SRB assay, 48 hour exposure
# Type: cell-based, human
# Condition Parameters: BT-549 breast cancer cell line
Numbers only, in µM.

As a guide, the following entries are already answered.
I.Nc1nc(-c2ccc(Oc3cccc(Cl)c3)cc2)cs1 = 14.3
I.Nc1nc(-c2ccc(Oc3ccccc3Cl)cc2)cs1 = 12.8
I.Nc1nc(-c2ccc(Sc3ccc(Cl)c(Cl)c3)cc2)cs1 = 5.95

# context switch: different compound, same GI50
Prompt: Please look up its GI50: I.Nc1nc(-c2ccc(Sc3ccc(Cl)cc3)cc2)cs1
Response: 15.3
